Biological target: EGFR InsGY (D770delinsGY) transformed Ba/F3 cells (Homo sapiens, UniProt P00533, D770Y/INS769G)
Construct: expressed in transfected cells; host or cells: Ba/F3
Sequence (P00533 with tags, fused parts or gaps INS769G/D770Y): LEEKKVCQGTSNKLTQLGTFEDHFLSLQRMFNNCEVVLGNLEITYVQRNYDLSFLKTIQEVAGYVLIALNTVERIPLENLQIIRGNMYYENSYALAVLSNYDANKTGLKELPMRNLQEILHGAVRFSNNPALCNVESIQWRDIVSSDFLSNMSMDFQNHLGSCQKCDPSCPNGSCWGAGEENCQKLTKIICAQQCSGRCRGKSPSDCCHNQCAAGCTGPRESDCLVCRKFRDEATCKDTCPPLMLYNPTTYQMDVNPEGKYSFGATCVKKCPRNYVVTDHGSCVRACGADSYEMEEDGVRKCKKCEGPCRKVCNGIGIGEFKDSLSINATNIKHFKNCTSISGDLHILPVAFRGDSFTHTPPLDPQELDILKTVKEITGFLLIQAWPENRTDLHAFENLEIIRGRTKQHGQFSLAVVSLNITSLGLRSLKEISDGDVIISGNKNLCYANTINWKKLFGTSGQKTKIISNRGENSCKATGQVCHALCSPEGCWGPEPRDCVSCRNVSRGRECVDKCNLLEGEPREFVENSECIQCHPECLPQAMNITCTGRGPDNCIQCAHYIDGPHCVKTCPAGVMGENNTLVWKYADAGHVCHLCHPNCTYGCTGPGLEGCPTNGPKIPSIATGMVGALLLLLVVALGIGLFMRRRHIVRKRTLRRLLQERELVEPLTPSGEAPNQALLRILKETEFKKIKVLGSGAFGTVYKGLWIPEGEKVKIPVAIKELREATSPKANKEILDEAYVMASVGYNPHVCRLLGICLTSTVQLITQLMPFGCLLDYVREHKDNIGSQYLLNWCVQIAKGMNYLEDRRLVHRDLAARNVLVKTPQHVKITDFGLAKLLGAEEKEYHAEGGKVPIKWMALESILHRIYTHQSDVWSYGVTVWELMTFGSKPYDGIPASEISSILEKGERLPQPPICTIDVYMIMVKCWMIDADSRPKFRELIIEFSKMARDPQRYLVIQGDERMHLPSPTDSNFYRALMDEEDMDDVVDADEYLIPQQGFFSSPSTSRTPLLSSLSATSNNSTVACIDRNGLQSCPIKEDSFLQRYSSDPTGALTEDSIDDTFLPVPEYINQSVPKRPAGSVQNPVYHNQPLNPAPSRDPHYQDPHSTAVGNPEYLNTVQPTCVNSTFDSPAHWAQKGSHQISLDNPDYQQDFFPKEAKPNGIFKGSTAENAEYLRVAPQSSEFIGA
Assay: Proliferation inhibition assay, EGFR InsGY transformed Ba/F3 cells
Format: cell-based
Conditions: MTS assay, 72 hours
Method: Cell growth inhibition can be assessed by MTS assay or by Cell Titer Glo Luminescent Cell viability assay (Promega®). […] The viability of the cells are then assessed. […] Cell growth inhibition was assessed by MTS assay for Ba/F3, DFCI58-229, and DFCI127c cells, or by Cell Titer Glo Luminescent Cell viability assay (Promega®) for DFC1362JC cells, 3000 Ba/F3 cells were seeded for per well in 96-well plates, and were exposed to representative compounds of the application (3.3 nM to 10 μM) for 72 hours. […]
measurement_label: EC50

Consider the compound shown here: C=CC(=O)Nc1cc(Nc2ncc3cc(Oc4cc(F)c(F)cc4F)c(=O)n(C)c3n2)c(OC)cc1N(C)CCN(C)C What is its recorded EC50?
< 200 nM

Queued: C=CC(=O)Nc1cc(Nc2ncc3cc(Oc4ccc(F)cc4Cl)c(=O)n(C)c3n2)c(OC)cc1N(C)CCN(C)C
< 200 nM

Queued: C=CC(=O)Nc1cc(Nc2ncc3cc(Nc4ccc(F)cc4F)c(=O)n(C)c3n2)c(OC)cc1OCCN(C)C
< 200 nM

Queued: C=CC(=O)Nc1cccc(-n2c(=O)c(Oc3ccc(F)cc3F)cc3cnc(Nc4cn(C)nc4OC)nc32)c1
< 200 nM

Queued: C=CC(=O)Nc1cccc(-n2c(=O)c(Oc3ccc(F)cc3F)cc3cnc(Nc4ccc(N5CCC(N6CCN(C)CC6)CC5)cc4)nc32)c1
< 200 nM

Queued: C=CC(=O)N1CCC(Cn2c(=O)c(Oc3ccc(F)cc3F)cc3cnc(Nc4cnn(C)c4)nc32)C1 (stereo not shown)
< 200 nM

Queued: C=CC(=O)N1CCC[C@@H](n2c(=O)c(Oc3ccc(F)cc3F)cc3cnc(Nc4cnn(C5CCN(C)CC5)c4)nc32)C1
< 200 nM

Queued: CCC(=O)Nc1cc(Nc2ncc3cc(Oc4ccc(F)cc4F)c(=O)n(C)c3n2)c(OC)cc1N(C)CCN(C)C
> 1000 nM

Queued: C=CC(=O)Nc1cccc(-n2c(=O)c(Oc3ccc(F)cc3)cc3cnc(Nc4cnn(C)c4)nc32)c1
< 200 nM

Queued: C=CC(=O)Nc1cc(Nc2ncc3cc(Oc4ccc(F)cc4F)c(=O)n(CC(F)(F)F)c3n2)c(OC)cc1N(C)CCN(C)C
< 200 nM

Queued: CN(C)C/C=C/C(=O)Nc1cccc(-n2c(=O)c(Oc3ccc(F)cc3F)cc3cnc(Nc4cnn(C)c4)nc32)c1
200 to 600 nM

Queued: C=CC(=O)Nc1cc(Nc2ncc3cc(Oc4ccc(F)cc4F)c(=O)n(C)c3n2)ncc1N(C)CCN(C)C
> 1000 nM

Queued: CC#CC(=O)Nc1cc(Nc2ncc3cc(Oc4ccc(F)cc4F)c(=O)n(C)c3n2)c(OC)cc1N(C)CCN(C)C
< 200 nM

* * *

For each record, write down the corresponding pEC50.
target: EGFR InsH transformed Ba/F3 cells (Homo sapiens, UniProt P00533, DUP773-773); assay: Proliferation inhibition assay, EGFR InsH transformed Ba/F3 cells; settings: MTS assay, 72 hours
Sequence (P00533 with tags, fused parts or gaps DUP773-773): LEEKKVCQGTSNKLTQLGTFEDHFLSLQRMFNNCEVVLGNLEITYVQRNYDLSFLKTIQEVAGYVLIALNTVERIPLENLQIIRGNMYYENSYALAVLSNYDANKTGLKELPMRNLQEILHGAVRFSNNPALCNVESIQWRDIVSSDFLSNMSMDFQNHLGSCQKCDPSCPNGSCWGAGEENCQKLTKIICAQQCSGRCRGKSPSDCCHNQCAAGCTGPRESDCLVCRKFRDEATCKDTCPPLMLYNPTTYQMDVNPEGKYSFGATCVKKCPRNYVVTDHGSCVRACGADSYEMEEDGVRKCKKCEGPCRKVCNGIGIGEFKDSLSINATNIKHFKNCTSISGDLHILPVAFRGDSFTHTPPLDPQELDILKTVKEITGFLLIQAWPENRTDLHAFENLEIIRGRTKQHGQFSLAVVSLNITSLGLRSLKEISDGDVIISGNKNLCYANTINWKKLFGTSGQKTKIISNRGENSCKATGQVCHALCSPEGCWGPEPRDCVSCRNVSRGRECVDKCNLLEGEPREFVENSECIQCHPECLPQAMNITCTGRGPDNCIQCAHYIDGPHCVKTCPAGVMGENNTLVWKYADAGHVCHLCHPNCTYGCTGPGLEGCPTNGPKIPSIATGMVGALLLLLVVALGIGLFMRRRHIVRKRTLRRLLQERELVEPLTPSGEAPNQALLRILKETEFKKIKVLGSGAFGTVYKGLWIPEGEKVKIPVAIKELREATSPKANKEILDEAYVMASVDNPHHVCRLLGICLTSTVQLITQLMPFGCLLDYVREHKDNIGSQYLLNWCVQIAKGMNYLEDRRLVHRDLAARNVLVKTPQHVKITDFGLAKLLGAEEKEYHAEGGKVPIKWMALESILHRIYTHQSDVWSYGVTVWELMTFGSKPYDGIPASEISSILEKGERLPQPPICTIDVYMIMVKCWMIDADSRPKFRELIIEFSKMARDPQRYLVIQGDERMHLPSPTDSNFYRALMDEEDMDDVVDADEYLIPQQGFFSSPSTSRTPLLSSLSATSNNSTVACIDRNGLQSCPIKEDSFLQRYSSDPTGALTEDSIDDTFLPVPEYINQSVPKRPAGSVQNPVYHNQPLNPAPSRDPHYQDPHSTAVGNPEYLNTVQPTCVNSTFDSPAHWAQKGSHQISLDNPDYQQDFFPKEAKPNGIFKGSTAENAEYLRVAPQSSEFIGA
pEC50: −log10 of the molar value.

Consider the compound shown here: C=CC(=O)Nc1cc(Nc2ncc3cc(Oc4ccc(F)cc4F)c(=O)n(C)c3n2)cnc1N(C)CCN(C)C What is its recorded pEC50?
6.00 to 6.22

Queued: C=CC(=O)Nc1cccc(-n2c(=O)c(Oc3ccc(F)cc3F)cc3cnc(N)nc32)c1
6.22 to 6.70

Queued: C=CC(=O)Nc1cc(Nc2ncc3cc(Oc4ccc(F)cc4F)c(=O)n(CC(F)(F)F)c3n2)c(OC)cc1N(C)CCN(C)C
> 6.70

Queued: C=CC(=O)Nc1cc(Nc2ncc3cc(Oc4ccc(C)cc4)c(=O)n(C)c3n2)c(OC)cc1N(C)CCN(C)C
6.22 to 6.70

Queued: C=CC(=O)Nc1cc(Nc2ncc3cc(Nc4ccc(F)cc4F)c(=O)n(C)c3n2)c(OC)cc1OCCN(C)C
6.00 to 6.22

Queued: C=CC(=O)Nc1cccc(-n2c(=O)c(Oc3ccc(F)cc3F)cc3cnc(Nc4cn(C)nc4OCC)nc32)c1
> 6.70

Queued: C=CC(=O)Nc1cc(Nc2ncc3cc(Oc4ccc(F)cc4F)c(=O)n(C)c3n2)ccc1N(C)CCN(C)C
> 6.70

Queued: C=CC(=O)Nc1cc(Nc2ncc3cc(Oc4ccc(F)cc4F)c(=O)n(C)c3n2)c(OC)cc1N(C)CCN(C)C
> 6.70

Queued: C=CC(=O)Nc1cc(Nc2ncc3cc(Oc4ccc(F)cc4F)c(N)nc3n2)c(OC)cc1N(C)CCN(C)C
6.00 to 6.22

Queued: C=CC(=O)Nc1ccc(OC)c(Nc2ncc3cc(Oc4ccc(F)cc4F)c(=O)n(CCN(C)C)c3n2)c1
< 6.00

Queued: C=CC(=O)Nc1cccc(-n2c(=O)c(Oc3ccc(F)cc3)cc3cnc(Nc4cnn(C)c4)nc32)c1
> 6.70

Queued: C=CC(=O)N1CCC[C@@H](n2c(=O)c(Oc3ccc(F)cc3F)cc3cnc(Nc4cnn(C)c4)nc32)C1
< 6.00

Queued: C=CC(=O)N1CCCC(n2c(=O)c(Oc3ccc(F)cc3F)cc3cnc(Nc4cnn(C)c4)nc32)CC1 (centres unmarked)
6.22 to 6.70

Queued: C=CC(=O)Nc1cc(Nc2ncc3cc(Oc4ccc(F)cc4)c(=O)n(C)c3n2)c(OC)cc1N(C)CCN(C)C
> 6.70
